Readings of Population Membrane Permeable-Phenotype (%) for the listed compounds
Test system: U2OS
experimental.protocol: Multiplex assay against U2OS
Format: toxicity, cell-based
experimental.conditions: human, 12 h, 1 µM, compound concentration 1 uM, replicate 1
Please reply with the bare figure in % and do not write the unit itself.

Look over these answered cases.
compound	result.number
CC(C)(C)c1cnc(CSc2cnc(NC(=O)C3CCNCC3)s2)o1	15
COc1ccc(NS(=O)(=O)c2sc3ccc(Cl)cc3c2C)cc1N1CCNCC1.Cl	6
CCCn1c(=O)c2[nH]c(C34CC5CC(CC3C5)C4)nc2n(CCC)c1=O	9
N#Cc1cnc(Nc2cc(NC[C@H]3CNCCO3)c(C(F)(F)F)cn2)cn1	7
CNC(=O)c1nn(C)c2c1C(C)(C)Cc1cnc(Nc3ccc(N4CCN(C)CC4)cc3)nc1-2	25

Q: If you can, please state the reported Population Membrane Permeable-Phenotype (%) value of CCC(=O)O[C@]1(C(=O)SCF)[C@H](C)C[C@H]2[C@@H]3C[C@H](F)C4=CC(=O)C=C[C@]4(C)[C@@]3(F)[C@@H](O)C[C@@]21C [FLUTICASONE PROPIONATE] .
Ans: 7

Q: Okay, and CNC(=O)c1cc(Oc2ccc(NC(=O)Nc3cc(C(C)(C)C)nn3-c3ccc4ncccc4c3)c(F)c2)ccn1 ?
Ans: 16

Q: What would you report for CN(C)CCOc1ccc(-c2nc(-c3ccncc3)c(-c3ccc4c(c3)CC/C4=N\O)[nH]2)cc1 ?
Ans: 45

----------
Test system: U2OS
experimental.protocol: Multiplex assay against U2OS
Format: toxicity, cell-based
experimental.conditions: human, 12 h, 10 µM, compound concentration 10 uM, replicate 2
measurement.kind: Population Hoechst High Intensity Objects (%)
Reply numerically in %, unit not repeated.

Here are 2 compounds together with their reported answers.
compound	result.number
CN(C)CCOc1ccc(-c2nc(-c3ccncc3)c(-c3ccc4c(c3)CC/C4=N\O)[nH]2)cc1	10
Cl.Cl.NC1(c2ccc(-c3nc4ccn5c(=O)[nH]nc5c4cc3-c3ccccc3)cc2)CCC1	16

Q: What Population Hoechst High Intensity Objects (%) value was documented for this compound, CNC(=O)c1cc(Oc2ccc(NC(=O)Nc3cc(C(C)(C)C)nn3-c3ccc4ncccc4c3)c(F)c2)ccn1 ?
Ans: 11

----------
Tested on: U2OS
experimental.protocol: Multiplex assay against U2OS
Type: toxicity, cell-based
experimental.conditions: human, 24 h, 1 µM, compound concentration 1 uM, replicate 1
Listed here are compounds together with their documented Population Tubulin-Different-Phenotype (%).
Please reply with the bare figure in % and do not write the unit itself.

Study these solved cases before continuing.
compound	readout.units	result.number
c1ccc2oc(-c3csc(C4CCN(Cc5nc6ncccc6[nH]5)CC4)n3)cc2c1	%	19
CC(C)(C)c1cnc(CSc2cnc(NC(=O)C3CCNCC3)s2)o1	%	38
CC(C)Oc1ccc(C(=O)N[C@H](CNC(=O)CN(C)C)Cc2ccc(-c3cn4cccc([C@H](C)O)c4n3)cc2)cc1Cl [GSK-923295A]	%	13

Q: For the compound CN(C)C/C=C/C(=O)Nc1cc2c(Nc3ccc(F)c(Cl)c3)ncnc2cc1O[C@H]1CCOC1.O=C(O)/C=C\C(=O)O.O=C(O)/C=C\C(=O)O [AFATINIB DIMALEATE] , what Population Tubulin-Different-Phenotype (%) is on record?
Ans: 20

Q: Same thing, different compound: CNc1oc(-c2cccc3ccccc23)nc1C#N
Ans: 6

Q: CC(=O)c1cc(-c2cc(C(=O)NC3CC3)ccc2C)c2ncccn12 ?
Ans: 17

Q: Check CNC(=O)c1cc(Oc2ccc(NC(=O)Nc3cc(C(C)(C)C)nn3-c3ccc4ncccc4c3)c(F)c2)ccn1 too.
Ans: 13

Q: Record: Cl.Cl.NC1(c2ccc(-c3nc4ccn5c(=O)[nH]nc5c4cc3-c3ccccc3)cc2)CCC1
Ans: 17

Q: Lookup COc1cc2c(Nc3ccc(NC(=O)c4ccccc4)cc3)ncnc2cc1OCCCN1CCOCC1
Ans: 98
